A collection of compounds and their measured CYP3A4 stability
- Test System: human cDNA expressed CYP3A4 (Homo sapiens, UniProt P08684)
- Construct: purchased Gentest
- Sequence (P08684 whole entry): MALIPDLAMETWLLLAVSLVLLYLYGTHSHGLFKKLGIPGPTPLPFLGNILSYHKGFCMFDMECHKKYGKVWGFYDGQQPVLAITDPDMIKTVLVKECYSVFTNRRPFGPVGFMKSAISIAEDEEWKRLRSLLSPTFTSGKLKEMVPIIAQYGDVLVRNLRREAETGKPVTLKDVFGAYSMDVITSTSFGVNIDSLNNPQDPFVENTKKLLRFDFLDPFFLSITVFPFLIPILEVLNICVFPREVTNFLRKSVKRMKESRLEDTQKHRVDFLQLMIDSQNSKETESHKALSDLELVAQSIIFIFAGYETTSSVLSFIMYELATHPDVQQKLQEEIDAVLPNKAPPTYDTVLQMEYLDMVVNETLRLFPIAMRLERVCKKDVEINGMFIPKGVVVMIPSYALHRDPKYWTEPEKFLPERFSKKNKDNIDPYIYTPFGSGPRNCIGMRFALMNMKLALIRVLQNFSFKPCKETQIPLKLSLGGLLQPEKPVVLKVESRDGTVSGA
- Assay: Metabolic stability (hCYP3A4)
- Assay type: in vitro ADME
- Condition Label: 2 μM, 60 min at 37° C.

>  <Compound>
CC(C)(O)CCCC1(C2=CCC3/C(=C/C=C4/CC(O)C[C@H](O)C4)CCC[C@]23C)CC1 (stereo partly shown)

>  <CYP3A4 stability>
33.3 % remaining

$$$$
>  <Compound>
C=C1/C(=C\C=C2/CCC[C@]3(C)C(C4(C/C=C\C(O)(C(F)(F)F)C(F)(F)F)CC4)=CCC23)CC(O)C[C@@H]1O (stereo partly shown)

>  <CYP3A4 stability>
52.7 % remaining

$$$$
>  <Compound>
C[C@]12CCC/C(=C\C=C3\CC(O)C[C@H](O)C3)C1CC=C2C1(CC#CC(O)(C(F)(F)F)C(F)(F)F)CC1 (stereo partly shown)

>  <CYP3A4 stability>
45.5 % remaining

$$$$
>  <Compound>
C[C@]12CCC/C(=C\C=C3\CC(O)C[C@H](O)C3)C1CC=C2C1(C/C=C\C(O)(C(F)(F)F)C(F)(F)F)CC1 (stereo partly shown)

>  <CYP3A4 stability>
58.3 % remaining

$$$$

====

- Test system: RT112
- Assay: Proliferation assay using bladder cancer cell lines: RT112
- Assay type: cell-based, human
- Condition Label: Homo sapiens, RT-112, 72 h, 72 h culture, CyQuant proliferation assay
pIC50: −log10 of the molar value.
Experimental Endpoint: pIC50

>  <Compound>
C=C1/C(=C\C=C2/CCC[C@]3(C)C([C@H](C)CCCC(C)(C)O)CC[C@@H]23)C[C@@H](O)C[C@@H]1O (stereo partly shown) [1,25(OH)2D3, 1,25-dihydroxycholecalciferol, reference compound]

>  <Result Value>
4.72

$$$$

====

- Test system: IFN-γ production by allogeneic PBMC
- Assay: IFN-γ production in the mixed leukocyte response (MLR)
- Format: cell-based
- Condition Label: 120 h; MLR of allogeneic PBMC, 5 days, ELISA; read-out: INF-γ IC50

>  <Compound>
C=C1/C(=C\C=C2/CCC[C@]3(C)C(C4(CC#CC(C)(C)O)CC4)=CCC23)CC(O)C[C@@H]1O (stereo partly shown)

>  <IC50 [nM]>
0.0336

$$$$
>  <Compound>
C[C@]12CCC/C(=C\C=C3\CC(O)C[C@H](O)C3)C1CC=C2C1(C/C=C/C(O)(C(F)(F)F)C(F)(F)F)CC1 (stereo partly shown)

>  <IC50 [nM]>
0.012

$$$$
>  <Compound>
C=C1/C(=C\C=C2/CCC[C@]3(C)C(C4(CC#CC(O)(C(F)(F)F)C(F)(F)F)CC4)=CCC23)CC(O)C[C@@H]1F (stereo partly shown)

>  <IC50 [nM]>
0.585

$$$$
>  <Compound>
C=C1/C(=C\C=C2/CCC[C@]3(C)C(C4(CC#CC(C)(C)O)CC4)=CCC23)CC(O)C[C@@H]1F (stereo partly shown)

>  <IC50 [nM]>
0.0164

$$$$

====

A collection of compounds and their measured IC50
- Test system: RT112
- Assay: Proliferation assay using bladder cancer cell lines: RT112
- Type: cell-based, human
- Condition Label: Homo sapiens, RT-112; 72 h culture, CyQuant proliferation assay
- Protocol: Bladder cancer cell lines (T24, RT112, HT1376 and RT4 are human bladder cancer cell lines; NHEK are normal human keratinocytes) were obtained from the European Collection of Cell Cultures (Salisbury, UK). […] After a further 72 h of culture, cell proliferation was measured using a fluorescence-based proliferation assay kit. […] The IC50 was calculated from the regression curve of the titration data.
Experimental Endpoint: IC50

>  <Compound>
C=C1/C(=C\C=C2/CCC[C@]3(C)C(C4(CC#CC(O)(C(F)(F)F)C(F)(F)F)CC4)=CCC23)CC(O)C[C@@H]1O (some centres unmarked)

>  <Result Value>
13.8 µM

$$$$
>  <Compound>
C=C1/C(=C\C=C2/CCC[C@]3(C)C(C4(CC#CC(C)(C)O)CC4)=CCC23)CC(O)C[C@@H]1F (some centres unmarked)

>  <Result Value>
> 30 µM

$$$$
>  <Compound>
C[C@]12CCC/C(=C\C=C3\CC(O)C[C@H](O)C3)C1CC=C2C1(CC#CC(O)(C(F)(F)F)C(F)(F)F)CC1 (some centres unmarked)

>  <Result Value>
22.7 µM

$$$$
>  <Compound>
C=C1/C(=C\C=C2/CCC[C@]3(C)C(C4(CCCC(C)(C)O)CC4)=CCC23)CC(O)C[C@@H]1O (some centres unmarked)

>  <Result Value>
27.6 µM

$$$$
>  <Compound>
C=C1/C(=C\C=C2/CCC[C@]3(C)C(C4(C/C=C/C(O)(C(F)(F)F)C(F)(F)F)CC4)=CCC23)CC(O)C[C@@H]1O (some centres unmarked)

>  <Result Value>
10.6 µM

$$$$

====

- System: Caco-2 cells
- Assay: Apparent permeability on Caco-2 cells
- Assay type: in vitro ADME, Human
- Condition Label: apical to basolateral; unit assumed
Experimental Endpoint: Mass Bal A > B (%)

>  <Molecule>
CC(C)(O)CCCC1(C2=CCC3/C(=C/C=C4/CC(O)C[C@H](O)C4)CCC[C@]23C)CC1 (stereo partly drawn) [Compound 9]

>  <Result Value>
36.7

$$$$
>  <Molecule>
C[C@]12CCC/C(=C\C=C3\CC(O)C[C@H](O)C3)C1CC=C2C1(CC#CC(O)(C(F)(F)F)C(F)(F)F)CC1 (stereo partly drawn) [Compound 3]

>  <Result Value>
8.8

$$$$
>  <Molecule>
C[C@]12CCC/C(=C\C=C3\CC(O)C[C@H](O)C3)C1CC=C2C1(C/C=C\C(O)(C(F)(F)F)C(F)(F)F)CC1 (stereo partly drawn) [Compound 7]

>  <Result Value>
13.1

$$$$

====

- Assay: Solubility in aqueous buffer
- Format: physicochemical
- Condition Label: kinetic from dmso stock, pH 7, 2 h

>  <Compound>
C[C@]12CCC/C(=C\C=C3\CC(O)C[C@H](O)C3)C1CC=C2C1(C/C=C\C(O)(C(F)(F)F)C(F)(F)F)CC1 (stereo partly shown) [Compound 7]

>  <Unit Text>
µM

>  <Rel>
=

>  <solubility at 2 h>
4.2

$$$$
>  <Compound>
CC(C)(O)CCCC1(C2=CCC3/C(=C/C=C4/CC(O)C[C@H](O)C4)CCC[C@]23C)CC1 (stereo partly shown) [Compound 9]

>  <Unit Text>
µM

>  <Rel>
=

>  <solubility at 2 h>
19.9

$$$$
>  <Compound>
C=C1/C(=C\C=C2/CCC[C@]3(C)C(C4(C/C=C\C(O)(C(F)(F)F)C(F)(F)F)CC4)=CCC23)CC(O)C[C@@H]1O (stereo partly shown) [Compound 8]

>  <Unit Text>
µM

>  <Rel>
<

>  <solubility at 2 h>
1

$$$$
>  <Compound>
C[C@]12CCC/C(=C\C=C3\CC(O)C[C@H](O)C3)C1CC=C2C1(CC#CC(O)(C(F)(F)F)C(F)(F)F)CC1 (stereo partly shown) [Compound 3]

>  <Unit Text>
µM

>  <Rel>
=

>  <solubility at 2 h>
1.3

$$$$

====

- System: RT112
- Assay: Proliferation assay using bladder cancer cell lines: RT112
- Assay type: cell-based, human
- Condition Label: Homo sapiens, RT-112; 72 h culture, CyQuant proliferation assay
pIC50: −log10 of the molar value.
Experimental Endpoint: pIC50

>  <Molecule>
C[C@]12CCC/C(=C\C=C3\CC(O)C[C@H](O)C3)C1CC=C2C1(C/C=C\C(O)(C(F)(F)F)C(F)(F)F)CC1 (stereo partly drawn) [Compound 7]

>  <Experimental Endpoint>
pIC50

>  <Rel>
=

>  <Result Value>
5.02

$$$$
>  <Molecule>
C=C1/C(=C\C=C2/CCC[C@]3(C)C(C4(C/C=C\C(O)(C(F)(F)F)C(F)(F)F)CC4)=CCC23)CC(O)C[C@@H]1O (stereo partly drawn) [Compound 8]

>  <Experimental Endpoint>
pIC50

>  <Rel>
=

>  <Result Value>
4.81

$$$$
>  <Molecule>
CC(C)(O)CCCC1(C2=CCC3/C(=C/C=C4/CC(O)C[C@H](O)C4)CCC[C@]23C)CC1 (stereo partly drawn) [Compound 9]

>  <Experimental Endpoint>
pIC50

>  <Rel>
<

>  <Result Value>
4.52

$$$$

====

- System: IFN-γ production by allogeneic PBMC
- Assay: IFN-γ production in the mixed leukocyte response (MLR)
- Assay type: cell-based
- Condition Label: 120 h; MLR of allogeneic PBMC, 5 days, ELISA; read-out: INF-γ IC50
Experimental Endpoint: IC50 (pM)

>  <Compound>
C[C@]12CCC/C(=C\C=C3\CC(O)C[C@H](O)C3)C1CC=C2C1(C/C=C\C(O)(C(F)(F)F)C(F)(F)F)CC1 (stereo partly shown)

>  <Test System>
IFN-γ production by allogeneic PBMC

>  <Result Value>
55

$$$$
>  <Compound>
CC(C)(O)CCCC1(C2=CCC3/C(=C/C=C4/CC(O)C[C@H](O)C4)CCC[C@]23C)CC1 (stereo partly shown)

>  <Test System>
IFN-γ production by allogeneic PBMC

>  <Result Value>
31

$$$$
>  <Compound>
C=C1/C(=C\C=C2/CCC[C@]3(C)C(C4(C/C=C\C(O)(C(F)(F)F)C(F)(F)F)CC4)=CCC23)CC(O)C[C@@H]1F (stereo partly shown)

>  <Test System>
IFN-γ production by allogeneic PBMC

>  <Result Value>
81

$$$$
>  <Compound>
C[C@]12CCC/C(=C\C=C3\CC(O)C[C@H](O)C3)C1CC=C2C1(CC#CC(O)(C(F)(F)F)C(F)(F)F)CC1 (stereo partly shown)

>  <Test System>
IFN-γ production by allogeneic PBMC

>  <Result Value>
14

$$$$
